Target: T1, GnRH Bio-peptide 1 (not fully specified)
T1 chain: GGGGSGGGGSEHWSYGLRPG
Assay: ELISA
Below: a set of entries, each annotated with reported EC50.

| binder | operator symbol | EC50 [nM] |
| --- | --- | --- |
| Clone 1 Ala scanning 5 (antibody, V domains shown) VH: QVQLVESGGGLVQAGGSVRLSCTASGRTFNNYVLGWFRQTPGKEREFVAAIRGTGSTTHADSVKGRFTISRDNAKNTVYLQMNSLKPEDTAVYYCAADDAYYAGNLRPQYWGQGTQVTVSS | = | 16.9 |
| Clone 1 (pGnRH-001) (antibody, V domains shown) VH: QVQLVESGGGLVQAGGSVRLSCTASGRTFNNYVLGWFRQTPGKEREFVAAIRGTGSTTHADSVKGRFTISRDNAKNTVYLQMNSLKPEDTAVYYCAADDAYYPGNLRPQYWGQGTQVTVSS | = | 4 |
| Clone 1 Ala scanning 6 (antibody, V domains shown) VH: QVQLVESGGGLVQAGGSVRLSCTASGRTFNNYVLGWFRQTPGKEREFVAAIRGTGSTTHADSVKGRFTISRDNAKNTVYLQMNSLKPEDTAVYYCAADDAYYPANLRPQYWGQGTQVTVSS | = | 26.2 |
| Clone 1 Ala scanning 3 (antibody, V domains shown) VH: QVQLVESGGGLVQAGGSVRLSCTASGRTFNNYVLGWFRQTPGKEREFVAAIRGTGSTTHADSVKGRFTISRDNAKNTVYLQMNSLKPEDTAVYYCAADDAAYPGNLRPQYWGQGTQVTVSS | > | 1000 |
